Experiment: Emulsion stability test (modified, xylene/water)
Format: physicochemical
Details: 0.5g surfactant, 90 mL deionized water, 5.0 mL xylene; second rocking sequence
Property: Emulsion Break Rate; scope: individual compounds
Return type: number; implicit unit mL/s.

COMPOUND	Emulsion Break Rate / mL/s
CCCCCCCCCCCCNC(=O)c1ccccc1C(=O)[O-].[Na+] [Sodium N-dodecylphthalamate, Sodium N-Dodecylphthalamate]	0.068
CCCCCCCCCCNC(=O)c1ccccc1C(=O)[O-].[Na+] [Sodium N-decylphthalamate]	0.034

Incoming: Output Emulsion Break Rate of CCCCCCCCNC(=O)c1ccccc1C(=O)[O-].[Na+] [Sodium N-octylphthalamate]
Outgoing: 0.111

Incoming: Output Emulsion Break Rate of CCCCCCCCCCCCNC(=O)c1ccccc1C(=O)O.OCCN(CCO)CCO [Triethanolammonium N-dodeylphthalamate]
Outgoing: 0.039

Attribution: patent EP0705591A2
